// values below are reported %-inhibition, BMPR1A
- Measurement target: panel of more than 300 wild-type and mutant kinases (313 kinase panel) (Homo sapiens, UniProt P36894)
- Measurement protocol: Kinase profiling in a biochemical assay panel (mobility shift assays and ELISA), %-inhibition at 1 μM; selectivity entropy
- Particulars: kinase BMPR1A; 1 μM compound
Express the result in % but write the number alone.

Example entries begin here.
CO[C@H]1C[C@@H]2CC[C@@H](C)[C@@](O)(O2)C(=O)C(=O)N2CCCC[C@H]2C(=O)O[C@H]([C@H](C)C[C@@H]2CC[C@@H](OCCO)[C@H](OC)C2)CC(=O)[C@H](C)/C=C(\C)[C@@H](O)[C@@H](OC)C(=O)[C@H](C)C[C@H](C)/C=C/C=C/C=C/1C [everolimus] : -3.21
CNC(=O)c1cc(Oc2ccc(NC(=O)Nc3ccc(Cl)c(C(F)(F)F)c3)c(F)c2)ccn1 [regorafenib] : -4.65

Prompt: Form field: reported %-inhibition, BMPR1A of COc1cc(Nc2c(C#N)cnc3cc(OCCCN4CCN(C)CC4)c(OC)cc23)c(Cl)cc1Cl [bosutinib]
Response: 1.74

---

// values below are reported pIC50
- System: forty-four human cancer cell lines
- Measurement protocol: Cell proliferation assay (ATPlite, 72 hours) in the 44 cell line Oncolines panel
- Format: cell-based
- Particulars: Homo sapiens, AN3-CA, read-out: cell panel IC50, AN3 CA
By convention, pIC50 is the negative base-10 log of a molar concentration.

Example entries begin here.
COc1cc(Nc2c(C#N)cnc3cc(OCCCN4CCN(C)CC4)c(OC)cc23)c(Cl)cc1Cl : 5.10
C#Cc1cccc(Nc2ncnc3cc(OCCOC)c(OCCOC)cc23)c1 : 5.37
N#CC[C@H](C1CCCC1)n1cc(-c2ncnc3[nH]ccc23)cn1 : 5.01
Cc1cn(-c2cc(NC(=O)c3ccc(C)c(Nc4nccc(-c5cccnc5)n4)c3)cc(C(F)(F)F)c2)cn1 : 4.58
Cc1nc(Nc2ncc(C(=O)Nc3c(C)cccc3Cl)s2)cc(N2CCN(CCO)CC2)n1 : 5.45

Prompt: Form field: reported pIC50 of COc1cc2nccc(Oc3ccc(NC(=O)C4(C(=O)Nc5ccc(F)cc5)CC4)cc3)c2cc1OC [cabozantinib]
Response: 5.22

Prompt: Form field: reported pIC50 of "C[C@@H](Oc1cc(-c2cnn(C3CCNCC3)c2)cnc1N)c1c(Cl)ccc(F)c1Cl"
Response: 5.77

---

- Tested on: forty-four human cancer cell lines
- Measurement protocol: Cell proliferation assay (ATPlite, 72 hours) in the 44 cell line Oncolines panel
- Assay type: cell-based
- Particulars: read-out: cell panel IC50, A-172; cell line A-172
Value type: pIC50
By convention, pIC50 is the negative base-10 log of a molar concentration.

Prompt: Form field: reported pIC50 of "COc1cccc2c1C(=O)c1c(O)c3c(c(O)c1C2=O)C[C@@](O)(C(=O)CO)C[C@@H]3O[C@H]1C[C@H](N)[C@H](O)[C@H](C)O1"
Response: 7.02

---

- Measurement target: panel of more than 300 wild-type and mutant kinases (313 kinase panel) (Homo sapiens)
- Measurement protocol: Kinase profiling in a biochemical assay panel (mobility shift assays and ELISA), %-inhibition at 1 μM; selectivity entropy
- Particulars: kinase PKACγ; 1 μM
// values below are reported %-inhibition of PKACγ
Express the result in % but write the number alone.

Example entries begin here.
CNC(=O)c1cc(Oc2ccc(NC(=O)Nc3ccc(Cl)c(C(F)(F)F)c3)c(F)c2)ccn1 [regorafenib] : -0.823
COc1cc(Nc2c(C#N)cnc3cc(OCCCN4CCN(C)CC4)c(OC)cc23)c(Cl)cc1Cl [bosutinib] : 53
COc1cc2nccc(Oc3ccc(NC(=O)C4(C(=O)Nc5ccc(F)cc5)CC4)cc3)c2cc1OC [cabozantinib] : -2.59

Prompt: Form field: reported %-inhibition of PKACγ of C[C@@H](Oc1cc(-c2cnn(C3CCNCC3)c2)cnc1N)c1c(Cl)ccc(F)c1Cl [crizotinib]
Response: -6.52

Prompt: Form field: reported %-inhibition of PKACγ of CO[C@H]1C[C@@H]2CC[C@@H](C)[C@@](O)(O2)C(=O)C(=O)N2CCCC[C@H]2C(=O)O[C@H]([C@H](C)C[C@@H]2CC[C@@H](OCCO)[C@H](OC)C2)CC(=O)[C@H](C)/C=C(\C)[C@@H](O)[C@@H](OC)C(=O)[C@H](C)C[C@H](C)/C=C/C=C/C=C/1C [everolimus]
Response: -7.41

Prompt: Form field: reported %-inhibition of PKACγ of COc1cc2c(Nc3ccc(Br)cc3F)ncnc2cc1OCC1CCN(C)CC1 [vandetanib]
Response: 6

---

- Measurement target: panel of more than 300 wild-type and mutant kinases (313 kinase panel) (Homo sapiens, UniProt P10721, D816V)
- Sequence (P10721 26-976 D816V): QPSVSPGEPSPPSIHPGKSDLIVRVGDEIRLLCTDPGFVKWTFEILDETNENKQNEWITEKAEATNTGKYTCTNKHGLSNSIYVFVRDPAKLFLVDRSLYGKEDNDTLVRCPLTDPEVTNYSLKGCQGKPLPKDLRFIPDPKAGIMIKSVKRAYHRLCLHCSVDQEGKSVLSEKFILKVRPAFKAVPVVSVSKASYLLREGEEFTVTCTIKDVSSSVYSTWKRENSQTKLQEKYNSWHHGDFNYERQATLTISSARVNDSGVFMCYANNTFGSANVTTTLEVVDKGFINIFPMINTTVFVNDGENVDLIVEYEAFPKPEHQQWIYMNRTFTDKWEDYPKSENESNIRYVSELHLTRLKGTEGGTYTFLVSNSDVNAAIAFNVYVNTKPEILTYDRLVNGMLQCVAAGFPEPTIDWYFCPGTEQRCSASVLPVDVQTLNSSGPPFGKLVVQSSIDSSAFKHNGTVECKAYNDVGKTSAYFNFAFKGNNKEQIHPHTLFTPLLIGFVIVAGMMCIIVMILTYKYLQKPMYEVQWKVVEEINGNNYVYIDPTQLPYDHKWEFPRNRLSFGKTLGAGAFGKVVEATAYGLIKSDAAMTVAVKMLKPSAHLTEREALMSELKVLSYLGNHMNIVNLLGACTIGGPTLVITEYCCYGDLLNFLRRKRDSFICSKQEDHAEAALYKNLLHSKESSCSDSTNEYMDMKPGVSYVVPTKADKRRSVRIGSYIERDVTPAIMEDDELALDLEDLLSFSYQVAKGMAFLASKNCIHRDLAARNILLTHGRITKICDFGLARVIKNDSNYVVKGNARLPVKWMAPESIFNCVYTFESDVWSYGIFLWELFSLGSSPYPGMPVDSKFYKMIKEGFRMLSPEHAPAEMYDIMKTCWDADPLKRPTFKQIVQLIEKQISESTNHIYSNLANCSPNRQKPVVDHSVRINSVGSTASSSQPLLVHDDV
- Measurement protocol: Kinase profiling in a biochemical assay panel (mobility shift assays and ELISA), %-inhibition at 1 μM; selectivity entropy
- Particulars: kinase KIT(D816V); compound at 1 μM
Decision: %-inhibition of KIT(D816V) compared against 20%; not below it gives y, below it gives n.

Worked examples follow.
CCCS(=O)(=O)Nc1ccc(F)c(C(=O)c2c[nH]c3ncc(-c4ccc(Cl)cc4)cc23)c1F [vemurafenib] : n
CO[C@H]1C[C@@H]2CC[C@@H](C)[C@@](O)(O2)C(=O)C(=O)N2CCCC[C@H]2C(=O)O[C@H]([C@H](C)C[C@@H]2CC[C@@H](OC(=O)C(C)(CO)CO)[C@H](OC)C2)CC(=O)[C@H](C)/C=C(\C)[C@@H](O)[C@@H](OC)C(=O)[C@H](C)C[C@H](C)/C=C/C=C/C=C/1C [temsirolimus] : n

Prompt: Check if %-inhibition of KIT(D816V) >= 20% (inclusive). Item: COc1cc2nccc(Oc3ccc(NC(=O)C4(C(=O)Nc5ccc(F)cc5)CC4)cc3)c2cc1OC [cabozantinib]
Response: y

Prompt: Check if %-inhibition of KIT(D816V) >= 20% (inclusive). Item: CNC(=O)c1cc(Oc2ccc(NC(=O)Nc3ccc(Cl)c(C(F)(F)F)c3)c(F)c2)ccn1 [regorafenib]
Response: y

Prompt: Check if %-inhibition of KIT(D816V) >= 20% (inclusive). Item: CC(C)(C)c1nc(-c2cccc(NS(=O)(=O)c3c(F)cccc3F)c2F)c(-c2ccnc(N)n2)s1 [dabrafenib]
Response: n

Prompt: Check if %-inhibition of KIT(D816V) >= 20% (inclusive). Item: C[C@@H](Oc1cc(-c2cnn(C3CCNCC3)c2)cnc1N)c1c(Cl)ccc(F)c1Cl [crizotinib]
Response: y

Prompt: Check if %-inhibition of KIT(D816V) >= 20% (inclusive). Item: COc1cc(Nc2c(C#N)cnc3cc(OCCCN4CCN(C)CC4)c(OC)cc23)c(Cl)cc1Cl [bosutinib]
Response: y

---

- Measurement target: panel of more than 300 wild-type and mutant kinases (313 kinase panel) (Homo sapiens)
- Measurement protocol: Kinase profiling in a biochemical assay panel (mobility shift assays and ELISA), %-inhibition at 1 μM; selectivity entropy
- Particulars: kinase ROCK2; 1 μM
Value type: %-inhibition of ROCK2
# number then unit; no other words

Prompt: Form field: reported %-inhibition of ROCK2 of "Cc1ccc(C(=O)Nc2ccc(CN3CCN(C)CC3)c(C(F)(F)F)c2)cc1C#Cc1cnc2cccnn12"
Response: 63%

Prompt: Form field: reported %-inhibition of ROCK2 of "CC(C)(C)c1nc(-c2cccc(NS(=O)(=O)c3c(F)cccc3F)c2F)c(-c2ccnc(N)n2)s1"
Response: 14%

Prompt: Form field: reported %-inhibition of ROCK2 of "CO[C@H]1C[C@@H]2CC[C@@H](C)[C@@](O)(O2)C(=O)C(=O)N2CCCC[C@H]2C(=O)O[C@H]([C@H](C)C[C@@H]2CC[C@@H](OCCO)[C@H](OC)C2)CC(=O)[C@H](C)/C=C(\C)[C@@H](O)[C@@H](OC)C(=O)[C@H](C)C[C@H](C)/C=C/C=C/C=C/1C"
Response: -5.49%

Prompt: Form field: reported %-inhibition of ROCK2 of "COc1cc2c(Nc3ccc(Br)cc3F)ncnc2cc1OCC1CCN(C)CC1"
Response: -0.708%

Prompt: Form field: reported %-inhibition of ROCK2 of "CNC(=O)c1cc(Oc2ccc(NC(=O)Nc3ccc(Cl)c(C(F)(F)F)c3)c(F)c2)ccn1"
Response: 2.65%

Prompt: Form field: reported %-inhibition of ROCK2 of "COc1cc(Nc2c(C#N)cnc3cc(OCCCN4CCN(C)CC4)c(OC)cc23)c(Cl)cc1Cl"
Response: 28%

---

// values below are reported %-inhibition of WNK1
- Measurement target: panel of more than 300 wild-type and mutant kinases (313 kinase panel) (Homo sapiens)
- Measurement protocol: Kinase profiling in a biochemical assay panel (mobility shift assays and ELISA), %-inhibition at 1 μM; selectivity entropy
- Particulars: kinase WNK1; compound at 1 μM
Express the result in % but write the number alone.

Example entries begin here.
CS(=O)(=O)CCNCc1ccc(-c2ccc3ncnc(Nc4ccc(OCc5cccc(F)c5)c(Cl)c4)c3c2)o1 : -0.825
C[C@@H](Oc1cc(-c2cnn(C3CCNCC3)c2)cnc1N)c1c(Cl)ccc(F)c1Cl : -3
Cc1cn(-c2cc(NC(=O)c3ccc(C)c(Nc4nccc(-c5cccnc5)n4)c3)cc(C(F)(F)F)c2)cn1 : -0.88

Prompt: Form field: reported %-inhibition of WNK1 of "N#CC[C@H](C1CCCC1)n1cc(-c2ncnc3[nH]ccc23)cn1"
Response: -4

Prompt: Form field: reported %-inhibition of WNK1 of "COc1cc2c(Nc3ccc(Br)cc3F)ncnc2cc1OCC1CCN(C)CC1"
Response: -2.36

Prompt: Form field: reported %-inhibition of WNK1 of "O=S(=O)(c1cccc2cnccc12)N1CCCNCC1"
Response: 3

Prompt: Form field: reported %-inhibition of WNK1 of "CC(=O)Nc1cccc(-n2c(=O)n(C3CC3)c(=O)c3c(Nc4ccc(I)cc4F)n(C)c(=O)c(C)c32)c1"
Response: -1.42

Prompt: Form field: reported %-inhibition of WNK1 of COc1cc2nccc(Oc3ccc(NC(=O)C4(C(=O)Nc5ccc(F)cc5)CC4)cc3)c2cc1OC [cabozantinib]
Response: -1.85

meta.source: paper PMC3961306
